In this section, each of the molecules is paired with its reported viability, T/C.
- System: NCI-H929 complex spheroids, viability % test/control
- assay-remarks: Anticancer human tumor NCI-H929 cell line growth inhibition [RAS];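 further: compound exposure lasted seven days before viability was read; 100% = DMSO vehicle control viability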
- condition-summary: second compound 0.03 µM; first compound 0.1 µM; stronger effect = lower value

>>> observed("C=CC(=O)Nc1cc(Nc2nccc(-c3cn(C)c4ccccc34)n2)c(OC)cc1N(C)CCN(C)C + CCn1c(-c2cccnc2C(C)OC)c2c3cc(ccc31)N1CCOC(CC(NC(=O)C(C(C)C)N(C)C(=O)C3(F)CCN(C(=O)C#CC(C)(C)N(C)C)CC3)C(=O)N3CCCC(N3)C(=O)OCC(C)(C)C2)C1")
"107%"

Inquiry: Recorded viability, T/C for CC(=O)OC12COC1CC(O)C1(C)C(=O)C(O)C3=C(C)C(OC(=O)C(O)C(NC(=O)OC(C)(C)C)c4ccccc4)CC(O)(C(OC(=O)c4ccccc4)C21)C3(C)C (configuration not stated) + CCn1c(-c2cccnc2C(C)OC)c2c3cc(ccc31)N1CCOC(CC(NC(=O)C(C(C)C)N(C)C(=O)C3(F)CCN(C(=O)C#CC(C)(C)N(C)C)CC3)C(=O)N3CCCC(N3)C(=O)OCC(C)(C)C2)C1 with NCI-H929 complex spheroids, viability % test/control, please?
Reply text: 0.53%

Inquiry: Report viability, T/C for CC(C)NCC(C(=O)N1CCN(c2ncnc3c2C(C)CC3O)CC1)c1ccc(Cl)cc1 (configuration not stated) + CCn1c(-c2cccnc2C(C)OC)c2c3cc(ccc31)N1CCOC(CC(NC(=O)C(C(C)C)N(C)C(=O)C3(F)CCN(C(=O)C#CC(C)(C)N(C)C)CC3)C(=O)N3CCCC(N3)C(=O)OCC(C)(C)C2)C1 tested on NCI-H929 complex spheroids, viability % test/control.
Reply text: 100%

Inquiry: Field: viability, T/C (NCI-H929 complex spheroids, viability % test/control). Entry: C=CC(=O)N1CCN(c2nc(OCC3CCCN3C)nc3c(F)c(-c4nc(N)cc(C)c4C(F)(F)F)c(Cl)cc23)C(C)C1 (configuration not stated) + CCn1c(-c2cc(N3CCN(C)CC3)cnc2C(C)OC)c2c3cc(ccc31)-c1csc(n1)CC(NC(=O)C1CC1C)C(=O)N1CCCC(N1)C(=O)OCC(C)(C)C2
Reply text: 91%

Inquiry: Request: viability, T/C, test system NCI-H929 complex spheroids, viability % test/control, entry O=C(c1ccc(F)c(F)c1Nc1ccc(I)cc1F)N1CC(O)([C@@H]2CCCCN2)C1 + CCn1c(-c2cc(N3CCN(C)CC3)cnc2C(C)OC)c2c3cc(ccc31)-c1csc(n1)CC(NC(=O)C1CC1C)C(=O)N1CCCC(N1)C(=O)OCC(C)(C)C2
Reply text: 2.83%

Inquiry: # get_value(readout= viability, T/C, system= NCI-H929 complex spheroids, viability % test/control) for CC(=O)OC12COC1CC(O)C1(C)C(=O)C(O)C3=C(C)C(OC(=O)C(O)C(NC(=O)OC(C)(C)C)c4ccccc4)CC(O)(C(OC(=O)c4ccccc4)C21)C3(C)C (configuration not stated) + CCn1c(-c2cc(N3CCN(C)CC3)cnc2C(C)OC)c2c3cc(ccc31)-c1csc(n1)CC(NC(=O)C1CC1C)C(=O)N1CCCC(N1)C(=O)OCC(C)(C)C2
Reply text: 0.83%

Inquiry: Report viability, T/C for Cc1nc(N2CCC3(CC2)COC(C)C3N)c(CO)nc1Sc1ccnc(N)c1Cl (configuration not stated) + CCn1c(-c2cccnc2C(C)OC)c2c3cc(ccc31)N1CCOC(CC(NC(=O)C(C(C)C)N(C)C(=O)C3(F)CCN(C(=O)C#CC(C)(C)N(C)C)CC3)C(=O)N3CCCC(N3)C(=O)OCC(C)(C)C2)C1 tested on NCI-H929 complex spheroids, viability % test/control.
Reply text: 103%
